From: paper PMC5667929

- Tgt: Grh (UniProt P13002 551-1333)
- Sequence (P13002 551-1333): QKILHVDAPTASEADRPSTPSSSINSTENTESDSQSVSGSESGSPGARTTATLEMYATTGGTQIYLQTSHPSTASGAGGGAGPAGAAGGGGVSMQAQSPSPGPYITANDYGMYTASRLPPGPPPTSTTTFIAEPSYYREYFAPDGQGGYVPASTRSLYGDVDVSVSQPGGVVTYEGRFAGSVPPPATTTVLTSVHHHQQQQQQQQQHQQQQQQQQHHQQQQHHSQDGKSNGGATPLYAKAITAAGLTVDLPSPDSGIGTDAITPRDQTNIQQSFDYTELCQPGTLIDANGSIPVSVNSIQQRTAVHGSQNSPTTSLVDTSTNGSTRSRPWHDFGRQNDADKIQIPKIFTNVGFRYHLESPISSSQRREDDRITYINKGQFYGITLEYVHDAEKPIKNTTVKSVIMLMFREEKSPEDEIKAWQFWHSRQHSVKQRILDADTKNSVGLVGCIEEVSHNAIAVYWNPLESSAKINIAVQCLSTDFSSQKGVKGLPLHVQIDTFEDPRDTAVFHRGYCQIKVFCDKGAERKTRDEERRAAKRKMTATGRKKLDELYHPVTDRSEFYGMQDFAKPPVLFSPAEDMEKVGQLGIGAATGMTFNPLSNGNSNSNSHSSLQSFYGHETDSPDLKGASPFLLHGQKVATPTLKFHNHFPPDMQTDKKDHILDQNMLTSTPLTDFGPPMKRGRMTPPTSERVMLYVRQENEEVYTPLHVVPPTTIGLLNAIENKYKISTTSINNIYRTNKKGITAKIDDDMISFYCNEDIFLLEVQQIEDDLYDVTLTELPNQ
- Test Summary: EMSA; EMSA, 20 ul, 30 min, room temperature; 5X buffer as printed: 20% glycerol, 1 mg/ml BSA, 2.5 mM EDTA, '50mM 1M tris' pH 7.5, 50 mM KCl, 5 mM MgCl2, 2.5 mM DTT, 90 ug/ml poly(dI-dC); proteins 100-200 ng
- Measurement Conditions: protein: recombinant; tags: 6xHis; chain copies: 2
Property Name: binding result

binder="motif-29 (Hox-Exd consensus) (dsDNA) DNA 1: CTCAAGCGCGTGATGAATGTAATCTTCG DNA 2: CGAAGATTACATTCATCACGCGCTTGAG" property_name="binding result" value_measured="no binding"
binder="motif-28 (dsDNA) DNA 1: AAGCCGAGCCTGAATCAGGTACTCAAATTGTCGC DNA 2: GCGACAATTTGAGTACCTGATTCAGGCTCGGCTT" property_name="binding result" value_measured=binds
binder="motif-30 Exd mutant (dsDNA) DNA 1: GAAACAGGATAACCATAACTGCTCC DNA 2: GGAGCAGTTATGGTTATCCTGTTTC" property_name="binding result" value_measured=binds
binder="motif-24 (dsDNA) DNA 1: CGCTCATAAAGTTAACCAACGATTTCATTCCTAAAC DNA 2: GTTTAGGAATGAAATCGTTGGTTAACTTTATGAGCG" property_name="binding result" value_measured="no binding"
